- assayRemarks: TIMS collision cross section in N2 (TIMS CCS N2); higher = larger gas-phase ion size
- testContext: ion species: [M-H]-; drift gas: N2 (99.4% N2, 0.6% O2); calibration: Stow et al. 2017 values for Agilent ESI-L Low Concentration Tune Mix; ionization: negative ESI
experimentalReadout: TIMS collision cross section in N2 (Å²)
Numbers only here, please. The scale is Å².

Report TIMS collision cross section in N2 for O=c1cc(-c2ccc(O)c(O[C@@H]3OC(CO)[C@@H](O)[C@@H](O)C3O)c2)oc2cc(O[C@@H]3OC(CO)[C@@H](O)[C@@H](O)C3O)cc(O)c12 (stereo not given in full) [Luteolin-7,3'-di-O-glucoside] please.
236.98

###

- assayRemarks: TIMS collision cross section in N2 (TIMS CCS N2); higher = larger gas-phase ion size
- testContext: ion species: [M-H+Na+HCO2H]-; drift gas: N2 (99.4% N2, 0.6% O2); calibration: Stow et al. 2017 values for Agilent ESI-L Low Concentration Tune Mix; ionization: negative ESI
experimentalReadout: TIMS collision cross section in N2 (Å²)
Hi! Could you send only the number? It should be in Å², unit omitted.

As a guide, the following entries are already answered.
O=c1cc(-c2ccc(O)cc2)oc2cc(OC3O[C@H](CO)[C@@H](O)[C@H](O)[C@H]3O)cc(O)c12 (stereo partly drawn) [Apigenin-7-O-glucoside (apigetrin)] = 228.65
COc1ccc(C2CC(=O)c3c(O)cccc3O2)cc1OC (stereo not drawn) [5-Hydroxy-3',4'-dimethoxyflavanone] = 187.65

Item under review: CC1(C)CC[C@]2(C(=O)O)CC[C@]3(C)C(=CC[C@@H]4[C@@]5(C)CC[C@H](O)[C@@](C)(CO)[C@@H]5CC[C@]43C)[C@@H]2C1 [Hederagenin] . Reported TIMS collision cross section in N2?
234.04

###

- assayRemarks: TIMS collision cross section in N2 (TIMS CCS N2); higher = larger gas-phase ion size
- testContext: ion species: [M-H+Na+HCO2H]-; drift gas: N2 (99.4% N2, 0.6% O2); calibration: Stow et al. 2017 values for Agilent ESI-L Low Concentration Tune Mix; ionization: negative ESI
experimentalReadout: TIMS collision cross section in N2 (Å²)
Numeric answer only, unit Å² assumed.

COc1cc([C@@H]2CC(=O)c3c(O)cc(O)cc3O2)ccc1O [Homoeriodictyol] = 188.05

Would you kindly share the measured TIMS collision cross section in N2 for COc1ccc(C2CC(=O)c3c(O)cc(OC)cc3O2)cc1 (centres undefined) [7,4'-Dimethoxy-5-hydroxyflavanone] ?
194.46

Follow-up entry: COc1ccc(C2CC(=O)c3c(O)cc(O)cc3O2)cc1OC (centres undefined) [5,7-dihydroxy-3',4'-dimethoxy-flavanone]
195.74

Field entry: COc1ccc(-c2oc3cc(OC)ccc3c(=O)c2O)cc1 [7,4'-Dimethoxy-3-hydroxyflavone]
193.67

Please do the same for COc1ccc(-c2cc(=O)c3c(O)c(OC)c(O)c(OC)c3o2)cc1OC [Hymenoxin] as well.
207.1

What would you report for COc1cc(-c2cc(=O)c3c(O)c(OC)c(O)cc3o2)cc(OC)c1O [5,7,4'-trihydroxy-6,3',5'-trimethoxyflavone] ?
202.32

And what about the molecule C[C@@H]1O[C@@H](O[C@H]2[C@H](Oc3cc(O)c4c(=O)cc(-c5ccc(O)cc5)oc4c3)O[C@H](CO)[C@@H](O)[C@@H]2O)[C@H](O)[C@H](O)[C@H]1O [Rhoifolin] ?
229.74

Ok, now C[C@@H]1O[C@@H](O[C@H]2[C@H](Oc3cc(O)c4c(c3)O[C@H](c3ccc(O)cc3)CC4=O)O[C@H](CO)[C@@H](O)[C@@H]2O)[C@H](O)[C@H](O)[C@H]1O [Naringin]
220.79

Try this molecule next: O=c1c(O)c(-c2ccc(O)cc2O)oc2ccc(O)cc12 [3,6,2',4'-Tetrahydroxyflavone]
183.33
